The reported measurements were obtained from patent EP4763837A1.

# test-description: Solubility of photochromic compound in polymerizable compounds
# Assay type: physicochemical
# Design: key: 1: No haze is seen when checked under transmission of light, and the sample is completely dissolved.; 2: A very thin haze is seen to the extent that it can be seen under transmission of light.; 3: A thin haze that can be seen under transmission of light is seen.; 4: A haze can be seen even without transmission of light
# cond: 35 µmol/g in radical polymerizable compound composition of Example 21, 65 to 70°C; head reads 60 min in Tables 8 to 14
# Procedure: The photochromic compounds according to Examples and Comparative examples shown in Table 5 were evaluated for solubility in polymerizable compounds. […] Dissolution was checked every 15 minutes up to 1 hour later, the sample was visually checked by transmitting light through the sample, and a degree of dissolution was evaluated according to the following four evaluation criteria. […]
quantity-name: Dissolution for 1 hour

a. CCCC1(CC)c2cc(C)ccc2-c2c1c1c(c3cc(OC)c(-c4ccc(N5CCOCC5)cc4)cc23)OC(c2ccc(OC)cc2)(c2ccc(N3CCOCC3)cc2)C=C1 (centres unmarked)
b. COc1ccc(C2(c3ccc(OC)cc3)C=Cc3c4c(c5cc(N6CCOCC6)c(OC)cc5c3O2)-c2ccccc2C4(C)C)cc1 [Formula (A), reference compound]
Rank a against b by their Dissolution for 1 hour values and give the higher one. # reply format: chosen label b
(b: 3, a: 1)

----------
# test-description: Photochromic property of photochromic laminate made by coating method
# Type: physicochemical
# cond: laminate by coating method; A96/A0 x 100 after 96 hours accelerated degradation, xenon weather meter X25
quantity-name: Residual ratio (%)

CCCC1(CC)c2cc(Sc3c(C)cccc3C)ccc2-c2c1c1c(c3cc(OC)ccc23)OC(c2ccc(OC)cc2)(c2ccc(N(C)c3ccccc3)cc2)C=C1 (stereo not drawn) [Formula (88-1)] | 68
CCCCC1(CC)c2ccccc2-c2c1c1c(c3cc(OC)c(C)cc23)OC(c2ccc(OC)cc2)(c2ccc(OCCC)cc2)C=C1 (stereo not drawn) [Formula (2-2)] | 68

----------
# test-description: Solubility of photochromic compound in polymerizable compounds
# Format: physicochemical
# Design: key: 1: No haze is seen when checked under transmission of light, and the sample is completely dissolved.; 2: A very thin haze is seen to the extent that it can be seen under transmission of light.; 3: A thin haze that can be seen under transmission of light is seen.; 4: A haze can be seen even without transmission of light
# cond: 35 µmol/g in radical polymerizable compound composition of Example 21, 65 to 70°C, stirring and ultrasonic irradiation
quantity-name: Dissolution for 30 min

CCCCC1(CCC)c2cc(C)ccc2-c2c1c1c(c3cc(OC)c(-c4ccc(N5CCOCC5)cc4)cc23)OC(c2ccc(OC)cc2)(c2ccc(N3CCOCC3)cc2)C=C1 (stereo not shown) | 2
CCC1(CC)c2ccccc2-c2c1c1c(c3cc(OC)c(N(C)c4ccccc4)cc23)OC(c2ccc(OC)cc2)(c2ccc(OC)cc2)C=C1 [Formula (F), reference compound] | 3
CCCCC1(CC)c2cc(OC)ccc2-c2c1c1c(c3cc(OC)c(Sc4c(C)cccc4C)cc23)OC(c2ccc(OC)cc2)(c2ccc(N3CCOCC3)cc2)C=C1 (stereo not shown) | 3
CCC1(CC)CCC2(CC1)c1cc(OC)ccc1-c1c2c2c(c3cc(OC)c(Sc4c(C)cccc4C)cc13)OC(c1ccc(OC)cc1)(c1ccc(N3CCOCC3)cc1)C=C2 (stereo not shown) [Formula (J), reference compound] | 3
CCC1(C)c2cc(OC)ccc2-c2c1c1c(c3cc(OC)c(Sc4c(C)cccc4C)cc23)OC(c2ccc(OC)cc2)(c2ccc(N3CCOCC3)cc2)C=C1 (stereo not shown) | 3
CCCCCCC1(CC)c2ccccc2-c2c1c1c(c3cc(OC)c(N4CCOCC4)cc23)OC(c2ccc(OC)cc2)(c2ccc(OC)cc2)C=C1 (stereo not shown) | 2
CCCCC1(CC)c2ccccc2-c2c1c1c(c3cc(OC)c(N(C)c4ccccc4)cc23)OC(c2ccc(OC)cc2)(c2ccc(OC)cc2)C=C1 (stereo not shown) | 2
CCCC1(CC)c2cc(OC)ccc2-c2c1c1c(c3cc(OC)ccc23)OC(c2ccc(OC)cc2)(c2ccc(N3CCOCC3)cc2)C=C1 (stereo not shown) | 3
COc1ccc(C2(c3ccc(OC)cc3)C=Cc3c4c(c5ccc(OC)cc5c3O2)-c2ccc(OC(F)(F)F)cc2C4(C)C)cc1 [Formula (H), reference compound] | 3
CCC1(OC)c2ccccc2-c2c1c1c(c3cc(OC)c(N4CCOCC4)cc23)OC(c2ccc(OC)cc2)(c2ccc(OC)cc2)C=C1 (stereo not shown) [Formula (B), reference compound] | 3

1. CCCC1(CC)c2ccccc2-c2c1c1c(c3cc(OC)c(N4CCOCC4)cc23)OC(c2ccc(OC)cc2)(c2ccc(OC)cc2)C=C1 (stereo not shown)
2. COc1ccc(C2(c3ccc(OC)cc3)C=Cc3c4c(c5cc(N6CCOCC6)c(OC)cc5c3O2)-c2ccccc2C4(C)C)cc1 [Formula (A), reference compound]
3. CCCCCCCCCCCC1(C)c2ccccc2-c2c1c1c(c3cc(OC)c(N4CCOCC4)cc23)OC(c2ccc(OC)cc2)(c2ccc(OC)cc2)C=C1 (stereo not shown)
With regard to Dissolution for 30 min, arrange the entries in ascending order, please. // list labels; follow requested order 3, 1, 2
(3: 1, 1: 2, 2: 3)

I. CCCCC1(CCC)c2ccccc2-c2c1c1c(c3cc(OC)c(N4CCOCC4)cc23)OC(c2ccc(OC)cc2)(c2ccc(OC)cc2)C=C1 (stereo not shown)
II. COc1ccc(C2(c3ccc(N4CCOCC4)cc3)C=Cc3c4c(c5cc(Sc6c(C)cccc6C)c(OC)cc5c3O2)-c2ccc(OC)cc2C4(C)C)cc1 (stereo not shown) [Formula (K), reference compound]
Rank I against II by their Dissolution for 30 min values and give the higher one. # reply format: chosen label II
(II: 4, I: 2)

P. COc1ccc(C2(c3ccc(N(c4ccccc4)c4ccccc4)cc3)C=Cc3c4c(c5cc(-c6c(OC)cc(OC)cc6OC)c(OC)cc5c3O2)-c2ccccc2C4(C)C)cc1 (stereo not shown) [Formula (L), reference compound]
Q. CCCCCC1(CC)c2cc(OC(F)(F)F)ccc2-c2c1c1c(c3cc(OC)ccc23)OC(c2ccc(OC)cc2)(c2ccc(OC)cc2)C=C1 (stereo not shown)
In terms of reported Dissolution for 30 min, does P or Q have the smaller number? # reply format: chosen label Q
(Q: 2, P: 3)
